ASSAYED_TARGET: CYP3A4 (Homo sapiens)
Construct: pooled human liver microsomes; tissue BioIVT; host or cells: pooled human liver microsomes
Sequence (P08684 whole entry): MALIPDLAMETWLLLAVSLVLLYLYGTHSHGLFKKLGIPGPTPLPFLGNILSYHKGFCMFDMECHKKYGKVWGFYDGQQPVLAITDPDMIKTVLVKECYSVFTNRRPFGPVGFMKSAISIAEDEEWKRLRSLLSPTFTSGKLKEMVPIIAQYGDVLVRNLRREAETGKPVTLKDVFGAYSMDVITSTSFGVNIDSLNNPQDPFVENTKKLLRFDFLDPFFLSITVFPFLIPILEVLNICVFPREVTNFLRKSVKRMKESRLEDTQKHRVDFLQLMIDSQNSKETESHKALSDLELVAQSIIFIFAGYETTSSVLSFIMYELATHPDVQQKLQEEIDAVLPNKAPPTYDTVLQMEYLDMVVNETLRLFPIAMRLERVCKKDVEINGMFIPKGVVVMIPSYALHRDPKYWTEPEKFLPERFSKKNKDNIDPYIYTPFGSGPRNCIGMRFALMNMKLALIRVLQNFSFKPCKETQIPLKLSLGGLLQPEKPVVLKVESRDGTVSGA
ASSAY_METHOD_TEXT: CYP450 inhibition in HLM, atorvastatin, nifedipine and midazolam probes
Type: in vitro ADME
CONDITION_PARAMETERS: midazolam probe, read-out: IC50 CYP450 3A4- MDZ
pIC50: −log10 of the molar value.
REPORTED_METRIC: pIC50

Batch of 3 molecules: report pIC50 for each.
1. CC(C)(C)OC(=O)/N=C(\NC(=O)OC(C)(C)C)Nc1cc(Cl)ccn1
2. Nc1cc(Cl)ccn1 [Compound 2-AP, 2-amino-4-chloropyridine, reference compound]
3. CC(C)(C)OC(=O)/N=C(\NC(=O)OC(C)(C)C)Nc1cc(C#N)ccn1

Found:
["< 4.00", "< 4.00", "< 4.00"]

----------
Assignment: determine reported pIC50 for the given compounds.
ASSAYED_TARGET: CYP2D6 (Homo sapiens, UniProt P10635)
Sequence (P10635 whole entry): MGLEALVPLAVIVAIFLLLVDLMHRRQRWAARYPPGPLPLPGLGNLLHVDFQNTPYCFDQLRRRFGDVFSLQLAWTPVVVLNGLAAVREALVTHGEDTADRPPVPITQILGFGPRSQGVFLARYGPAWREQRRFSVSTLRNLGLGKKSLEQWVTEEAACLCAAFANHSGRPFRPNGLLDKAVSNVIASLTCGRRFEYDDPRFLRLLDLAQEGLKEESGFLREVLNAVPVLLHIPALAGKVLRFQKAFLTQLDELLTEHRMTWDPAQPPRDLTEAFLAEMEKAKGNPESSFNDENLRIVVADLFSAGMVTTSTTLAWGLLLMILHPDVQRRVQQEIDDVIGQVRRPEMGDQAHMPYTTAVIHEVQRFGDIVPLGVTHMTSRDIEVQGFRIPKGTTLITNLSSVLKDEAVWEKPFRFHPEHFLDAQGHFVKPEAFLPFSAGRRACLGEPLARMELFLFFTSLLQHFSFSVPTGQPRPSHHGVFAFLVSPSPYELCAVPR
pIC50: −log10 of the molar value.

Before answering, review these 2 worked examples.
COMPOUND | ASSAYED_TARGET | pIC50
Nc1cc(Cl)ccn1 [Compound 2-AP, 2-amino-4-chloropyridine, reference compound] | CYP2D6 (Homo sapiens, UniProt P10635) | < 4.00
CC(C)(C)OC(=O)/N=C(\NC(=O)OC(C)(C)C)Nc1cc(Cl)ccn1 | CYP2D6 (Homo sapiens, UniProt P10635) | < 4.00

Given item `CC(C)(C)OC(=O)/N=C(\NC(=O)OC(C)(C)C)Nc1cc(C#N)ccn1` , the value recorded as its pIC50 is < 4.00

----------
Assignment: determine reported IC50 at 48 h for the given compounds.
ASSAY_METHOD_TEXT: CellTiter-Glo luminescent cell viability assay (ATP), H27
Format: cell-based, human
CONDITION_PARAMETERS: human; H27 cells, 48 h, ATP luminescence; read-out: Cytotoxicity IC50 H27
Answers are plain numbers, in µM.

SMILES_INPUT | RESULT_UNIT | IC50 at 48 h
CC(C)(C)OC(=O)/N=C(\NC(=O)OC(C)(C)C)Nc1cc(Cl)ccn1 | µM | 98.4

Now let's try a different one.
Given item `CC(C)(C)OC(=O)/N=C(\NC(=O)OC(C)(C)C)Nc1cc(C#N)ccn1` , the value recorded as its IC50 at 48 h is 205

----------
ASSAY_METHOD_TEXT: Metabolic stability in human liver microsomes
Assay type: in vitro ADME
CONDITION_PARAMETERS: human, pooled human liver microsomes, pH 7.4; HLM
REPORTED_METRIC: half-life at 0.5 µM (min)
One number for each entry, in min.

Batch of 3 compounds: report half-life at 0.5 µM for each.
1. CC(C)(C)OC(=O)/N=C(\NC(=O)OC(C)(C)C)Nc1cc(Cl)ccn1
2. Nc1cc(Cl)ccn1 [Compound 2-AP, 2-amino-4-chloropyridine, reference compound]
3. CC(C)(C)OC(=O)/N=C(\NC(=O)OC(C)(C)C)Nc1cc(C#N)ccn1

Found:
[81, 54.6, 72]

----------
pIC50: −log10 of the molar value.
Let's go through some pIC50 measurements on CYP2C9 (Homo sapiens, UniProt P11712) together.
Sequence (P11712 whole entry): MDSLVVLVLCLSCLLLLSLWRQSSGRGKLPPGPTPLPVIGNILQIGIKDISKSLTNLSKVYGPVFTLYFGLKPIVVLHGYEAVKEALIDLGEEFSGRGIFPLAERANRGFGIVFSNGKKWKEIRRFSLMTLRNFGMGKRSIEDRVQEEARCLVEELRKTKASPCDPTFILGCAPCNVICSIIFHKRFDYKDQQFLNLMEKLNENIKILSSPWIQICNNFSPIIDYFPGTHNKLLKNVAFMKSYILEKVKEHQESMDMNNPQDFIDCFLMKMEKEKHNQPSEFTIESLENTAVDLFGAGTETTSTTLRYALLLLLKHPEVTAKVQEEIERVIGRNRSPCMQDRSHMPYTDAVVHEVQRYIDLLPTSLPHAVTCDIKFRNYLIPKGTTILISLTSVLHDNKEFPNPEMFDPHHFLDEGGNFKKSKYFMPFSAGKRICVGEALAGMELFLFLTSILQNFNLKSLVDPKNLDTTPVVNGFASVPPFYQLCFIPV

Before answering, review these 2 worked examples.
COMPOUND | REPORTED_VALUE
CC(C)(C)OC(=O)/N=C(\NC(=O)OC(C)(C)C)Nc1cc(Cl)ccn1 | < 4.00
Nc1cc(Cl)ccn1 [Compound 2-AP, 2-amino-4-chloropyridine, reference compound] | < 4.00

Now let's try a different one.
Given item `CC(C)(C)OC(=O)/N=C(\NC(=O)OC(C)(C)C)Nc1cc(C#N)ccn1` , the value recorded as its pIC50 is < 4.00
